The reported measurements were obtained from ChEMBL document CHEMBL5360672.

# System: T47D
# measurement.notes: Antiproliferative activity against human T47D cells harboring ERalpha D538G mutant assessed as inhibition of cell proliferation incubated for 72 hrs by CCK8 assay
# Format: functional, cell-based
Please go through the items and note down their IC50.
Answers are plain numbers, in µM.

Can you give me IC50 for all of these, one by one?
1. CCN(c1ccc(Cl)cc1)S(=O)(=O)C1CC2OC1C(c1ccc(NC(=O)CCCCC[Se]C#N)cc1)=C2c1ccc(O)cc1 (centres undefined)
2. CCN(c1ccc(F)cc1)S(=O)(=O)C1CC2OC1C(c1ccc(NC(=O)CCCCC[Se]C#N)cc1)=C2c1ccc(O)cc1 (centres undefined)
3. COc1ccc(N(CC(F)(F)F)S(=O)(=O)C2CC3OC2C(c2ccc(NC(=O)CCC[Se]C#N)cc2)=C3c2ccc(O)cc2)cc1 (centres undefined)
4. CCN(c1ccccc1OC)S(=O)(=O)C1CC2OC1C(c1ccc(NC(=O)CCCCC[Se]C#N)cc1)=C2c1ccc(O)cc1 (centres undefined)

Result:
[6.76, 2.43, 17.2, 5.52]

----------
# measurement.notes: Cytotoxicity against human MCF-10A cells assessed as inhibition of cell proliferation incubated for 72 hrs by CCK8 assay
# Type: toxicity, cell-based
measured.parameter: IC50 at 72 h (µM)
Give bare numbers, in µM.

The following compounds have reported results that may help.
{"compound": "N#C[Se]CCCCCC(=O)Nc1ccc(C2=C(c3ccc(O)cc3)C3CC(S(=O)(=O)Oc4ccc(O)cc4)C2O3)cc1 (stereo not given)", "reading.unit": "µM", "IC50 at 72 h": 10.4}
{"compound": "COc1cccc(N(CC(F)(F)F)S(=O)(=O)C2CC3OC2C(c2ccc(NC(=O)CCCCC[Se]C#N)cc2)=C3c2ccc(O)cc2)c1 (stereo not given)", "reading.unit": "µM", "IC50 at 72 h": 26.9}
{"compound": "N#C[Se]CCCCCC(=O)Nc1ccc(C2=C(c3ccc(O)cc3)C3CC(S(=O)(=O)Oc4cccc5ccccc45)C2O3)cc1 (stereo not given)", "reading.unit": "µM", "IC50 at 72 h": 13.9}
{"compound": "CCN(c1ccccc1OC)S(=O)(=O)C1CC2OC1C(c1ccc(NC(=O)CCCCC[Se]C#N)cc1)=C2c1ccc(O)cc1 (stereo not given)", "reading.unit": "µM", "IC50 at 72 h": 15.9}
{"compound": "CCN(c1ccc(OC)cc1)S(=O)(=O)C1CC2OC1C(c1ccc(NC(=O)CCCCC[Se]C#N)cc1)=C2c1ccc(O)cc1 (stereo not given)", "reading.unit": "µM", "IC50 at 72 h": 37.9}

Can you give me IC50 at 72 h for all of these, one by one?
1. COc1ccccc1OS(=O)(=O)C1CC2OC1C(c1ccc(NC(=O)CCCCC[Se]C#N)cc1)=C2c1ccc(O)cc1 (stereo not given)
2. CCN(c1cccc(Cl)c1)S(=O)(=O)C1CC2OC1C(c1ccc(NC(=O)CCCCC[Se]C#N)cc1)=C2c1ccc(O)cc1 (stereo not given)
3. COc1cccc(OS(=O)(=O)C2CC3OC2C(c2ccc(NC(=O)CCCCC[Se]C#N)cc2)=C3c2ccc(O)cc2)c1 (stereo not given)
4. N#C[Se]CC(=O)Nc1ccc(C2=C(c3ccc(O)cc3)C3CC(S(=O)(=O)Oc4ccccc4)C2O3)cc1 (stereo not given)
5. N#C[Se]CCCCCC(=O)Nc1ccc(C2=C(c3ccc(O)cc3)C3CC(S(=O)(=O)Oc4ccc5ccccc5c4)C2O3)cc1 (stereo not given)

Result:
1. 7.37
2. 9.23
3. 19.9
4. 38.6
5. 22.6

Can you give me IC50 at 72 h for all of these, one by one?
1. N#C[Se]CCCCCCCC(=O)Nc1ccc(C2=C(c3ccc(O)cc3)C3CC(S(=O)(=O)Oc4ccccc4)C2O3)cc1 (stereo not given)
2. N#C[Se]CCCCCC(=O)Nc1ccccc1

Result:
1. 20.5
2. 2.26
